Reported TGI values follow for various compounds
- Tested on: DLD-1 colon
- TEST METHOD NOTES: NCI tumour cell line growth inhibition, 48 h
READOUT TYPE: TGI

INSERT INTO measurements (compound, subject_of_test, reported_result) VALUES
  ('Cn1cnc([N+](=O)[O-])c1SC1=NCCS1', 'DLD-1 colon', '> 100 µM'),
  ('Cc1ccc(-c2nc3c(C(=O)NCCN(C)C)cccc3[nH]2)cc1', 'DLD-1 colon', '73.2 µM'),
  ('O=C(Nc1ccc([N+](=O)[O-])cc1C(=O)O)c1ccc([N+](=O)[O-])cc1', 'DLD-1 colon', '> 100 µM'),
  ('Cc1ccc(NC(=O)COC(=O)c2cccc3c(=O)c4ccccc4[nH]c23)cc1', 'DLD-1 colon', '> 100 µM'),
  ('Cc1nc2c(n1CCC(C)C)C(=O)c1ccccc1C2=O', 'DLD-1 colon', '> 100 µM'),
  ('N#CCCN(CCC#N)c1ccc(/C=N\c2nc(-c3ccccc3)cs2)cc1', 'DLD-1 colon', '> 100 µM'),
  ('COC(=O)c1c(C)cc2c(c1O)C1(O)C(=O)c3cc4c(c(O)c3C(=O)C1(OC)C(O)C2)C(=O)C=C(NC1OC(C)C(OC)C(O)C1OC)C4=O (stereo unspecified)', 'DLD-1 colon', '0.12 µM'),
  ('C[N+](C)(C)Cc1c(CC#N)[nH]c2ccccc12', 'DLD-1 colon', '> 100 µM'),
  ('CC1CC(=O)C(CC(=O)O)C1C(C(=O)C(=O)Nc1c(C#N)cccc1[N+](=O)[O-])[N+](=O)[O-] (stereo unspecified)', 'DLD-1 colon', '> 100 µM'),
  ('Oc1ccc2c3c1OC1C(=NN=C4CCC5(O)C6Cc7ccc(O)c8c7C5(CCN6CC5CC5)C4O8)CCC4(O)C(C2)N(CC2CC2)CCC314 (stereo unspecified)', 'DLD-1 colon', '> 100 µM'),
  ('O=NNc1cnccn1', 'DLD-1 colon', '> 1250 µM'),
  ('CC1C=CC(C)C2(O)C(=O)NC(O)C12 (stereo unspecified)', 'DLD-1 colon', '> 100 µM'),
  ('C#C[C@@]1(O)CCCC2=CC(=O)C[C@]21C', 'DLD-1 colon', '> 100 µM'),
  ('CCOC(=O)N[C@H]1CCc2cc(O)c(OC)c(OC)c2-c2ccc(SC)c(=O)cc21', 'DLD-1 colon', '> 100 µM'),
  ('COc1ccc2c[n+](C)c3c4cc(OC)c(OC)cc4ccc3c2c1', 'DLD-1 colon', '42.2 µM'),
  ('Cc1cc(Cl)ccc1NC(=O)CC1SC(N)=NC1=O (stereo unspecified)', 'DLD-1 colon', '> 100 µM');

* * *

- System: LXFL 529 NSCLC
- TEST METHOD NOTES: NCI tumour cell line growth inhibition, 48 h
Reported TGI values follow for various compounds
READOUT TYPE: TGI (µM)

INSERT INTO results (compound, readout_type, qual, reported_result) VALUES
  ('C[N+](C)(C)Cc1c(CC#N)[nH]c2ccccc12', 'TGI', '>', 100),
  ('Cc1ccc([N+](=O)[O-])cc1NC(=O)C(=O)Cc1cc(=O)oc2cc(O)ccc12', 'TGI', '>', 100),
  ('CC1CC(=O)C(CC(=O)O)C1C(C(=O)C(=O)Nc1c(C#N)cccc1[N+](=O)[O-])[N+](=O)[O-] (stereo not given)', 'TGI', '>', 100),
  ('Cn1cnc([N+](=O)[O-])c1SC1=NCCS1', 'TGI', '>', 100),
  ('COc1ccc(CC2NCCc3cc(OC)c(OC)cc32)cc1 (stereo not given)', 'TGI', '>', 100),
  ('CC(=O)[O-].[Ni].c1ccc(/C(=N\Nc2ccccn2)c2ccccn2)cc1', 'TGI', '=', 16),
  ('COC(=O)C1=COC2OC3/C(=C\c4ccc(O)c(OC)c4)C(=O)OC34C=CC1C24 (stereo not given)', 'TGI', '=', 27.1),
  ('Cc1ccc(NC(=O)C(=O)C2NC(=S)NC2=O)c([N+](=O)[O-])c1 (stereo not given)', 'TGI', '>', 100),
  ('Cc1cc(NS(=O)(=O)c2ccc(NC(=O)c3cccc4cc5ccccc5nc34)cc2)no1', 'TGI', '=', 31.5),
  ('CN(C)CC(C)(C)C(/C=C/c1ccccc1)=N\Nc1ccccc1', 'TGI', '=', 0.446);

* * *

- Tested on: UO-31 renal
- TEST METHOD NOTES: NCI tumour cell line growth inhibition, 48 h
Reported TGI values follow for various molecules
READOUT TYPE: TGI (µM)

INSERT INTO assay_data (molecule, readout_type, result_units, qual, reported_result) VALUES
  ('CC(=O)N1C(C(=O)NNc2ccccc2)CSC1c1ccccc1 (stereo not given)', 'TGI', 'µM', '>', 100),
  ('Cc1[nH]n(-c2ccc(S(=O)(=O)O)cc2)c(=O)c1N=Nc1ccccc1', 'TGI', 'µM', '>', 100),
  ('S=P1(c2ccccc2)Nc2ccc(Cl)cc2N1 (stereo not given)', 'TGI', 'µM', '>', 100),
  ('O=C1N(CN2CCOCC2)CN(CN2CCOCC2)C(=O)N1Cc1ccccc1', 'TGI', 'µM', '=', 68.6),
  ('O=C(N/N=c1/ccoc2cccnc12)N1CCN(c2ncccn2)CC1', 'TGI', 'µM', '=', 3.96),
  ('c1cc2cc(c1)CN1CCNCCN(CCNCC1)Cc1cccc(c1)CN1CCNCCN(CCNCC1)C2', 'TGI', 'µM', '>', 100),
  ('COC(=O)c1c(C)cc2c(c1O)C1(O)C(=O)c3cc4c(c(O)c3C(=O)C1(OC)C(O)C2)C(=O)C=C(NC1OC(C)C(OC)C(O)C1OC)C4=O (stereo not given)', 'TGI', 'µM', '=', 0.427),
  ('Nc1ccc(C(=O)NN2C(=O)C(Cl)C2c2ccc([N+](=O)[O-])cc2)cc1 (stereo not given)', 'TGI', 'µM', '=', 30.8),
  ('COc1cc(S(=O)(=O)Nc2ccc(-c3csc(N4C(=O)C(C)SC4c4ccccc4O)n3)cc2)ccc1Cl (stereo not given)', 'TGI', 'µM', '>', 100),
  ('Cc1cc(O)ccc1O', 'TGI', 'µM', '=', 26.2);

* * *

- Test system: NCI-H226 lung
- TEST METHOD NOTES: NCI tumour cell line growth inhibition, 48 h
Reported TGI values follow for various compounds
READOUT TYPE: TGI

INSERT INTO results (compound, subject_of_test, readout_type, reported_result) VALUES
  ('O=C(CC(O)c1ccncc1)c1ccccc1 (stereo unspecified)', 'NCI-H226 lung', 'TGI', '> 100 µM'),
  ('Oc1ccc2c3c1OC1C(=NN=C4CCC5(O)C6Cc7ccc(O)c8c7C5(CCN6CC5CC5)C4O8)CCC4(O)C(C2)N(CC2CC2)CCC314 (stereo unspecified)', 'NCI-H226 lung', 'TGI', '> 100 µM'),
  ('O=Cc1[nH]c(=O)[nH]c(=O)c1CCl', 'NCI-H226 lung', 'TGI', '> 100 µM'),
  ('O=C(N1CCC(CN=c2cc3n(-c4ccc(Cl)cc4)c4ccccc4nc-3cc2Nc2ccc(Cl)cc2)CC1)N1CC1', 'NCI-H226 lung', 'TGI', '74.2 µM'),
  ('c1ccc(SC(Sc2ccccc2)c2ccc3c(c2)OCO3)cc1', 'NCI-H226 lung', 'TGI', '> 100 µM'),
  ('CC(=O)OC1(C#N)CC2OC1C1C2N1C(=O)OC(C)(C)C (stereo unspecified)', 'NCI-H226 lung', 'TGI', '> 100 µM'),
  ('O=C(N/N=C/C=C/c1ccc([N+](=O)[O-])o1)c1ccc(Br)s1', 'NCI-H226 lung', 'TGI', '47.3 µM'),
  ('C=CCC12CC(=O)C=C1CCC1(C2)OCCO1 (stereo unspecified)', 'NCI-H226 lung', 'TGI', '> 100 µM'),
  ('OCCCCn1cc(Cn2ncc3c(SCc4ccccc4)ncnc32)nn1', 'NCI-H226 lung', 'TGI', '> 100 µM'),
  ('O=C(CC/C(CC(=O)c1ccc(Cl)cc1)=N/O)Nc1ccc(Cl)c(Cl)c1', 'NCI-H226 lung', 'TGI', '> 100 µM'),
  ('O=C(Nc1cccc([N+](=O)[O-])c1)c1ccc2ccccc2c1O', 'NCI-H226 lung', 'TGI', '> 100 µM'),
  ('CC(C)(C)c1cn2cccc(C(=O)N3CCN(CC(=O)Nc4ccc(Cl)cc4C(=O)c4ccccc4Cl)CC3)c2n1', 'NCI-H226 lung', 'TGI', '37 µM'),
  ('Cn1cnc([N+](=O)[O-])c1SC1=NCCS1', 'NCI-H226 lung', 'TGI', '> 100 µM'),
  ('CO/N=C(\COc1ccc2c(c1)oc(=O)c1cc(OC)ccc12)c1cccc(OC)c1', 'NCI-H226 lung', 'TGI', '> 100 µM'),
  ('N#CCC12CC=CCC1=C(O)C(=O)c1ccc(O)cc12 (stereo unspecified)', 'NCI-H226 lung', 'TGI', '> 100 µM'),
  ('Cc1cc(O)ccc1O', 'NCI-H226 lung', 'TGI', '> 100 µM'),
  ('COc1cc(CNC(=O)[C@H](Cc2ccc(O)cn2)NC(C)=O)cc(OC)c1', 'NCI-H226 lung', 'TGI', '> 100 µM'),
  ('COc1cc(/C=C/C(=O)C(C(=O)/C=C/c2ccc(OC(=O)CCNc3nnc(C)s3)c(OC)c2)C(=O)CCNc2nnc(C)s2)ccc1OC(=O)CCNc1nnc(C)s1', 'NCI-H226 lung', 'TGI', '8.12 µM'),
  ('COc1cc(/C=C/c2sc3ccccc3[n+]2C)ccc1N(C)C', 'NCI-H226 lung', 'TGI', '50.6 µM'),
  ('COc1cc(C(=O)/C=C/c2c(-c3ccc(F)cc3)nc3ncccn23)cc(OC)c1OC', 'NCI-H226 lung', 'TGI', '18.9 µM'),
  ('CC(=O)OCC1OC(n2c3c(cc(C#N)c2=S)CCCCCC3)C(OC(C)=O)C(OC(C)=O)C1OC(C)=O (stereo unspecified)', 'NCI-H226 lung', 'TGI', '> 100 µM');
